# ASSAYED_SYSTEM: Torsin-1A-interacting protein 2 (Homo sapiens) (UniProt Q8NFQ8)
# Sequence (Q8NFQ8 whole entry, looked up): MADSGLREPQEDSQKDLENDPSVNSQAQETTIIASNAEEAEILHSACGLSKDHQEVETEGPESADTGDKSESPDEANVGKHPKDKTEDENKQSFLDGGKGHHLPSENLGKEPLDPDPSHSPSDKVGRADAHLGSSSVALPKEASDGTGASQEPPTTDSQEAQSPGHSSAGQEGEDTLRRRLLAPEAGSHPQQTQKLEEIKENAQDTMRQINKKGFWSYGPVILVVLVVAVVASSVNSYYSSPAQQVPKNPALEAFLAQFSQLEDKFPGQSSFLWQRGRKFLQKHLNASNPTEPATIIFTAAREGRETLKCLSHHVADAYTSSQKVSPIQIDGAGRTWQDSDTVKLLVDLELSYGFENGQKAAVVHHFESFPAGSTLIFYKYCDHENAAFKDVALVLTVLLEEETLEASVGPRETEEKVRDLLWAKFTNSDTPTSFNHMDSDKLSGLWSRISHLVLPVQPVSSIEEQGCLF
# TEST_NAME: LULL1 binders on small-molecule microarray, primary screen, cell lysate, human LULL1 lysate, 635/667 nm fluorescence (AID 1092);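 further: probe is lysate of COS7 cells overexpressing human LULL1; score merges per-feature 667 nm fluorescence with signal-to-noise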
# EXPERIMENTAL_CONDITIONS: hLULL1 lysate binding, 635 nm fluorescence, higher = more signal
RECORDED_METRIC: composite z-score
Could you keep your reply to the number by itself?

Consider the compound C=CCC(OC(C)=O)[C@@H]1[C@@H](N(Cc2ccc(-c3ccccc3)cc2)C(=O)c2ccc(C)cc2)c2cc(OCCCO)ccc2N1C(=O)c1ccc2ccccc2c1 (stereo partly drawn) . State its measured composite z-score.
0.327

Consider the compound NCCCC[C@@H]1NC(=O)[C@H]2C[C@@H](C(=O)NCc3ccc(F)cc3)[C@@H](c3cccc(OCCO)c3)N2C1=O . State its measured composite z-score.
2.69

Consider the compound CCCC=C(CCC)[C@@H](NS(=O)(=O)c1ccc(Cl)cc1)c1ccccc1 . State its measured composite z-score.
1.1

Consider the compound C=CCC(OC(C)=O)[C@@H]1[C@@H](N(Cc2cccc3ccccc23)C(=O)c2cccc3ccccc23)c2cc(OCCCO)ccc2N1C(=O)Cc1ccc2ccccc2c1 (stereo partly drawn) . State its measured composite z-score.
-0.0809

Consider the compound CCCCC(=C=CC[C@@H](O)c1cccc(OCCO)c1)C[C@@H](O)COCc1ccccc1 . State its measured composite z-score.
0.866

Consider the compound CC(C)CNC(=O)[C@@H]1c2ccccc2C(=O)N(C2Cc3ccccc3C2)[C@H]1c1ccc(CO)cc1 . State its measured composite z-score.
2.59

Consider the compound CCOC(=O)C1=CC[C@@H](c2ccccc2)N(S(=O)(=O)c2ccc(C)cc2)[C@H]1C#N . State its measured composite z-score.
2.99

Consider the compound COC(=O)[C@@]1(Cc2ccc(F)cc2)[C@H]2c3cc(C(=O)N(C)C)n(CCn4cc([N+](=O)[O-])nc4C)c3C[C@H]2CN1C(=O)c1ccccc1 . State its measured composite z-score.
2.87

---

# TEST_NAME: small-molecule microarray binders of probe aShh, primary screen, biochemical, biotinylated probe, 635/667 nm fluorescence (AID 1114);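 further: probe is biotin-labelled aShh protein from a stem cell growth factor screen; measures binding of labelled protein to compounds printed on the slide; score merges feature fluorescence at 667 nm with signal-to-noise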
# EXPERIMENTAL_CONDITIONS: higher = more signal
Provide the reported composite z-score of each item.
Could you keep your reply to the number by itself?

Consider the molecule COCCOC(=O)N1C(=O)[C@@]2(c3cc(C#CCCO)ccc31)[C@H](c1ccccc1OCCO)N1[C@H](c3ccccc3)[C@H](c3ccccc3)OC(=O)[C@H]1[C@@H]2C(=O)N1CCc2cc(OC)c(OC)cc2C1 . State its measured composite z-score.
-0.0119

Consider the molecule O=C1N(CCS(=O)(=O)c2ccccc2)c2ccccc2[C@@H]2OC(c3ccc(OCCCO)cc3)=N[C@]12CCS(=O)(=O)c1ccccc1 . State its measured composite z-score.
0.109

Consider the molecule CC[C@H](C)C(=O)O[C@H]1CC[C@]2(C)C3=C(CCC2C1(C)C)[C@]1(C)CC[C@H]([C@H](C)CCCC(C)C)[C@@]1(C)CC3 (some centres not stated) . State its measured composite z-score.
-0.0769

Consider the molecule CCCCNC(=O)c1ccc(C#C[Si](C)(C)C)c(OC(C)=O)c1 . State its measured composite z-score.
0.0952

Consider the molecule CC=CC(O)C1C=CC2C(=O)N(C)C(=O)C2N1NC(=O)OC(C)(C)C (configuration not stated) . State its measured composite z-score.
-0.206

Consider the molecule CC(C)C(=C=CC[C@@H](O)c1cccc(OCCO)c1)CCO . State its measured composite z-score.
-0.229

Consider the molecule C=CCC(OC(C)=O)[C@@H]1[C@@H](N(Cc2cccc3ccccc23)C(=O)c2ccc(-c3ccccc3)cc2)c2cc(OCCCO)ccc2N1C(=O)c1ccc2ccccc2n1 (some centres not stated) . State its measured composite z-score.
0.158

---

# System: Noggin (protein binding on small-molecule microarray)
# TEST_NAME: Noggin binders on small-molecule microarray, primary screen, biochemical, 635/667 nm fluorescence (AID 1095);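 further: score merges 667 nm feature fluorescence with signal to noise over triplicate slides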
# EXPERIMENTAL_CONDITIONS: 635 nm fluorescence, higher = more signal
Provide the reported composite z-score of each item.
Could you keep your reply to the number by itself?

Consider the molecule NCCCC[C@@H]1NC(=O)[C@H]2C[C@@H](C(=O)NCc3ccc(F)cc3)[C@@H](c3cccc(OCCO)c3)N2C1=O . State its measured composite z-score.
1.81

Consider the molecule CN(C)CCCC[C@@H]1NC(=O)[C@H]2C[C@@H](C(=O)O)[C@@H](c3cccc(OCCO)c3)N2C1=O . State its measured composite z-score.
1.19

Consider the molecule C=CCNC(=O)[C@@H]1[C@H]2C(=O)O[C@H](c3ccccc3)[C@H](c3ccccc3)N2[C@H](c2ccccc2OCCO)[C@@]12C(=O)N(C(=O)OCCOC)c1ccc(C#CCCO)cc12 . State its measured composite z-score.
0.96

Consider the molecule CC(C)C(=C=CC[C@@H](O)c1ccccc1OCCO)C[C@@H](O)c1cc(Cl)cc(Cl)c1O . State its measured composite z-score.
1.67

Consider the molecule CC1CC/C=C\[C@H]2OC34C=CCN(c5ccc(Cl)cc5)C(=O)[C@H]3N(CCCO)C(=O)[C@]4(C)C2C(=O)O1 (stereo partly drawn) . State its measured composite z-score.
-0.774

Consider the molecule N[C@@H](Cc1ccccc1)Cn1cc(C2(O)CCCCC2)nn1 . State its measured composite z-score.
0.112

Consider the molecule COc1ccc(NN2C(C(O)c3cc(C(F)(F)F)cc(C(F)(F)F)c3)C=CC3C(=O)N(C4CCCCC4)C(=O)C32)cc1 (stereo not drawn) . State its measured composite z-score.
0.535

Consider the molecule CCCC=C(CCC)[C@@H](NC(=O)c1ccccc1)c1ccc(C(=O)OC)cc1 . State its measured composite z-score.
0.748

---

# System: Plasmodium falciparum Sir2 (PF13_0152, Sir2A)
# TEST_NAME: pfSir2 binders on small-molecule microarrays, primary screen, biochemical, small-molecule microarray, 635 nm fluorescence (AID 1098);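 further: score merges spot fluorescence intensity with its signal-to-noise ratio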
# EXPERIMENTAL_CONDITIONS: small-molecule microarray binding, fluorescence 635 nm; higher = more signal
Provide the reported composite z-score of each item.
Could you keep your reply to the number by itself?

Consider the compound CCCCC(O)C1C=CC2C(=O)NC(=O)C2N1Nc1ccc(Cl)cc1Cl (stereo not given) . State its measured composite z-score.
0.976

Consider the compound CCCC=C(CCC)[C@@H](NC(=O)c1ccco1)c1ccc(C(=O)OC)cc1 . State its measured composite z-score.
0.851

Consider the compound C[C@H]1C2[C@H](Cc3ccccc3)NC(=O)[C@]23C(=O)NCC(=O)N2CCC[C@H]2C(=O)NC/C=C\C/C=C/C3[C@@H]2O[C@]12C (stereo not given in full) . State its measured composite z-score.
1

Consider the compound COCCOC(=O)N1C(=O)[C@@]2(c3ccccc31)[C@H](C(N)=O)[C@H]1C(=O)O[C@H](c3ccccc3)[C@H](c3ccccc3)N1[C@@H]2c1ccc(OCCO)cc1 . State its measured composite z-score.
0.537

Consider the compound CN(C)CCCCNC(=O)[C@H]1C[C@H]2C(=O)NCC(=O)N2[C@H]1c1cccc(OCCO)c1 . State its measured composite z-score.
0.828

Consider the compound CC(C)(C)OC(=O)CC[C@]1(C(N)=O)N=C(c2ccc(OCCCO)cc2)O[C@H]1c1ccccc1CN=[N+]=[N-] . State its measured composite z-score.
1.62

Consider the compound O=C1N(CCS(=O)(=O)c2ccccc2)c2ccccc2[C@@H]2OC(c3ccc(OCCCO)cc3)=N[C@]12CCS(=O)(=O)c1ccccc1 . State its measured composite z-score.
0.982

Consider the compound CN(C)C(=O)[C@]1(Cc2ccccc2CN=[N+]=[N-])N=C(c2ccc(OCCCO)cc2)O[C@@H]1c1ccccc1N=[N+]=[N-] . State its measured composite z-score.
1.18

Consider the compound CCOC(=O)C[C@H]1[C@H](OC(=O)c2ccc(-c3ccccc3)cc2)[C@@H](NC(=O)c2ccc3ccccc3c2)c2cc(OCCCO)ccc2N1C(=O)c1ccccc1 . State its measured composite z-score.
0.34

Consider the compound O=C1OCCC/C=C\[C@H]2OC34C=CCN(Cc5ccccc5)C(=O)[C@H]3N(CCCCCO)C(=O)[C@@H]4C12 (stereo not given in full) . State its measured composite z-score.
1.21

Consider the compound NC(=O)NCC#Cc1ccc2c(c1)[C@]1(C(=O)N2)[C@H](C(=O)Nc2nc3ccccc3s2)[C@H]2C(=O)O[C@H](c3ccccc3)[C@H](c3ccccc3)N2[C@@H]1c1ccc(OCCO)cc1 . State its measured composite z-score.
-0.478

Consider the compound CC(C)(C)N1CC=CC23O[C@@H]4/C=C\CCCOC(=O)C4[C@H]2C(=O)N(CCCCCCO)[C@@H]3C1=O (stereo not given in full) . State its measured composite z-score.
0.873

Consider the compound COc1ccc(NC(=O)O[C@H]2[C@H](OC(=O)Nc3ccc4c(c3)OCO4)[C@H](OC(=O)Nc3ccc4c(c3)OCO4)[C@@H](OC)O[C@@H]2CO)cc1 . State its measured composite z-score.
1.51

Consider the compound O=C1c2ccccc2[C@](Cc2ccccc2I)(C(=O)O)[C@H](c2ccc(CO)cc2)N1Cc1ccccc1 . State its measured composite z-score.
1.39

Consider the compound CC(C)(C)OC(=O)CC[C@]1(C(=O)N2CCOCC2)N=C(c2ccc(OCCCO)cc2)O[C@H]1c1ccccc1CN=[N+]=[N-] . State its measured composite z-score.
1.61
